# measured.on: PI3K delta (Homo sapiens)
# Construct: purchased Millipore, Billerica, MA, USA
# assay.name: Luciferase-based luminescence assay (KinaseGlo), PI3K delta enzymatic activity
# Format: biochemical
# reported.conditions: inhibition of enzymatic activity, KinaseGlo, 25 μM ATP; read-out: IC50 p110δ
attribute.measured: IC50

| molecule | measured.result |
| --- | --- |
| CN1CCC(c2ccccc2CC(C)(C)Nc2nc(N3CCOCC3)nc(-n3c(C(F)F)nc4ccccc43)n2)CC1 [Compound A35] | ≤ 100 nM |
| CC(=O)N1CCC(c2ccccc2CC(C)(C)Nc2nc(N3CCOCC3)nc(-n3c(C(F)F)nc4ccccc43)n2)CC1 [Compound A72] | ≤ 100 nM |
| CC(C)(Cc1ccccc1Cl)Nc1nc(N2CCOCC2)nc(-n2c(C(F)F)nc3ccccc32)n1 [Compound A16] | ≤ 100 nM |
| CC(C)(Nc1nc(N2CCOCC2)nc(-n2c(C(F)F)nc3ccccc32)n1)C1(c2ccccc2)CC1 [Compound A30] | 100 to 200 nM |
| COc1cccc(CC(C)(C)Nc2nc(N3CCOCC3)nc(-n3c(C(F)F)nc4ccccc43)n2)c1 [Compound A21] | ≤ 100 nM |
| COc1ccc(CC(C)(C)Nc2nc(N3CCOCC3)nc(-n3c(C(F)F)nc4ccccc43)n2)cc1 [Compound A25] | 200 to 500 nM |
| CC(C)(Cc1cccc(F)c1)Nc1nc(N2CCOCC2)nc(-n2c(C(F)F)nc3ccccc32)n1 [Compound A39] | ≤ 100 nM |

----------
# measured.on: PI3K beta (Homo sapiens, UniProt P42338)
# Construct: purchased Millipore, Billerica, MA, USA
# Sequence (P42338 whole entry, species assumed): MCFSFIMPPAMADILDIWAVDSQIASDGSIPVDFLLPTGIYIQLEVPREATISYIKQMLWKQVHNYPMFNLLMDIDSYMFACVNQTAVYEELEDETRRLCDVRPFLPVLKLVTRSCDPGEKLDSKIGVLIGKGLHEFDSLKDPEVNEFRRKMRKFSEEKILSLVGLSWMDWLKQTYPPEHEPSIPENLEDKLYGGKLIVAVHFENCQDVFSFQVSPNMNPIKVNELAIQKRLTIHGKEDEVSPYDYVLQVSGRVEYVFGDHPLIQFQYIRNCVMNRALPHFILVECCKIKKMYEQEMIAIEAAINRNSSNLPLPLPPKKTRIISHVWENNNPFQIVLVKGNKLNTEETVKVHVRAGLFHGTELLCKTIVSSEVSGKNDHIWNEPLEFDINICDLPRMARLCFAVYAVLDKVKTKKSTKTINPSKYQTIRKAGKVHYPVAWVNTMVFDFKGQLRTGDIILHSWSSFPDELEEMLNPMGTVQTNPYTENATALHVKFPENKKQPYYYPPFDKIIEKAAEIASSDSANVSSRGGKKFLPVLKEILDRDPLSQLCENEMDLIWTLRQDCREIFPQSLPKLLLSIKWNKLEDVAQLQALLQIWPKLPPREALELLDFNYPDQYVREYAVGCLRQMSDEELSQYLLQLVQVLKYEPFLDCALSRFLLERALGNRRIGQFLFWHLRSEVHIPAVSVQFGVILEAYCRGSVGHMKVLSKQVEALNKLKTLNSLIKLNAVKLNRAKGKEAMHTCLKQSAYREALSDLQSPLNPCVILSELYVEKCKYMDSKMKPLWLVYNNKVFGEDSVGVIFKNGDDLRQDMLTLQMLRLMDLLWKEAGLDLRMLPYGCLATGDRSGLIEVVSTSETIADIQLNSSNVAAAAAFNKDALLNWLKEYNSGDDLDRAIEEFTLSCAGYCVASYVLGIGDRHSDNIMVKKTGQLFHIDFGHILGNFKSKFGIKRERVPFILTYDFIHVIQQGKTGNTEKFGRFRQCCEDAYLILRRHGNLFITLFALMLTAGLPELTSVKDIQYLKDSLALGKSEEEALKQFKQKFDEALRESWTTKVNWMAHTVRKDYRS
# Sequence (P27986 whole entry partner, species assumed): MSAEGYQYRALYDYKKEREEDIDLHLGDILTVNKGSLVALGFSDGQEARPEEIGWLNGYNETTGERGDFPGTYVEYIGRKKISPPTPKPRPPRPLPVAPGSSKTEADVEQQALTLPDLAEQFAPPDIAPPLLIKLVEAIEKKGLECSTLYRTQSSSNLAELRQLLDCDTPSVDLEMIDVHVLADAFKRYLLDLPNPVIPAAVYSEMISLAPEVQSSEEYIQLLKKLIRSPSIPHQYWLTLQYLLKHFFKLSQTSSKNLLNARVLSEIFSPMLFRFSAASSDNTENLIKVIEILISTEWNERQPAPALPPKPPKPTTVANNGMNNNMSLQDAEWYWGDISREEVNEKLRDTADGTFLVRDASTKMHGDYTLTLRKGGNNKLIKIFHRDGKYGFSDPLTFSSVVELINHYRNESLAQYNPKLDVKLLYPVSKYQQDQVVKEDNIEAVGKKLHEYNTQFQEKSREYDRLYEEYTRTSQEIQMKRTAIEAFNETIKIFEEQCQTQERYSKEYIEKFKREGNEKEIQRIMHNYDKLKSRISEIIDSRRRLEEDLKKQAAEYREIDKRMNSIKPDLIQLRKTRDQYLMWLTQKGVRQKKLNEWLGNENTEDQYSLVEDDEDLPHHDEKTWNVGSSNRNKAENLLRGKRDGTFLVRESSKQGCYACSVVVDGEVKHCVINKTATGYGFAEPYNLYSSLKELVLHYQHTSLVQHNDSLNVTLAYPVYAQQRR
# assay.name: Luciferase-based luminescence assay (ADP Glo), PI3K beta enzymatic activity
# Format: biochemical
# reported.conditions: ratio of enzymatic IC50 values, Table 1
attribute.measured: α/β ratio

| smiles.input | measured.on | attribute.measured | measured.result |
| --- | --- | --- | --- |
| CC[C@H](Nc1nc(N2CCOCC2)nc(-n2c(C(F)F)nc3ccccc32)n1)c1ccccc1 | PI3K beta (Homo sapiens, UniProt P42338) | α/β ratio | D’ |
| CC(C)(Cc1ccccc1-c1cccnc1)Nc1nc(N2CCOCC2)nc(-n2c(C(F)F)nc3ccccc32)n1 | PI3K beta (Homo sapiens, UniProt P42338) | α/β ratio | B’ |
| CC(C)(Cc1ccc2ccccc2c1)Nc1nc(N2CCOCC2)nc(-n2c(C(F)F)nc3ccccc32)n1 | PI3K beta (Homo sapiens, UniProt P42338) | α/β ratio | C’ |
| CN1CCN(c2cc(-c3ccccc3CC(C)(C)Nc3nc(N4CCOCC4)nc(-n4c(C(F)F)nc5ccccc54)n3)ccn2)CC1 | PI3K beta (Homo sapiens, UniProt P42338) | α/β ratio | A’ |

----------
The entries below come with measured IC50 values attached.
# measured.on: PI3K delta (Homo sapiens)
# assay.name: Luciferase-based luminescence assay (KinaseGlo), PI3K delta enzymatic activity
# reported.conditions: inhibition of enzymatic activity, KinaseGlo, 25 μM ATP; read-out: IC50 p110δ

| molecule | IC50 |
| --- | --- |
| CC(C)(Cc1ccccc1-c1ccccc1F)Nc1nc(N2CCOCC2)nc(-n2c(C(F)F)nc3ccccc32)n1 [Compound A59] | ≤ 100 nM |
| CC(C)(Cc1cccc(Cl)c1)Nc1nc(N2CCOCC2)nc(-n2c(C(F)F)nc3ccccc32)n1 [Compound A20] | 100 to 200 nM |
| C[C@@H](Nc1nc(N2CCOCC2)nc(-n2c(C(F)F)nc3ccccc32)n1)c1ccccc1 [Compound A3] | > 500 nM |
| CC(C)(Cc1c(F)cccc1F)Nc1nc(N2CCOCC2)nc(-n2c(C(F)F)nc3ccccc32)n1 [Compound A52] | ≤ 100 nM |
| CC(C)(Cc1ccc(F)cc1)Nc1nc(N2CCOCC2)nc(-n2c(C(F)F)nc3ccccc32)n1 [Compound A22] | ≤ 100 nM |
| COc1ccc(C(C)(C)Nc2nc(N3CCOCC3)nc(-n3c(C(F)F)nc4ccccc43)n2)cc1 [Compound A9] | > 500 nM |
| CC(C)(Cc1ccc(Br)cc1)Nc1nc(N2CCOCC2)nc(-n2c(C(F)F)nc3ccccc32)n1 [Compound A24] | 100 to 200 nM |

----------
# measured.on: PI3K delta (Homo sapiens, UniProt O00329)
# Construct: purchased Millipore, Billerica, MA, USA
# Sequence (O00329 whole entry, species assumed, one chain of several): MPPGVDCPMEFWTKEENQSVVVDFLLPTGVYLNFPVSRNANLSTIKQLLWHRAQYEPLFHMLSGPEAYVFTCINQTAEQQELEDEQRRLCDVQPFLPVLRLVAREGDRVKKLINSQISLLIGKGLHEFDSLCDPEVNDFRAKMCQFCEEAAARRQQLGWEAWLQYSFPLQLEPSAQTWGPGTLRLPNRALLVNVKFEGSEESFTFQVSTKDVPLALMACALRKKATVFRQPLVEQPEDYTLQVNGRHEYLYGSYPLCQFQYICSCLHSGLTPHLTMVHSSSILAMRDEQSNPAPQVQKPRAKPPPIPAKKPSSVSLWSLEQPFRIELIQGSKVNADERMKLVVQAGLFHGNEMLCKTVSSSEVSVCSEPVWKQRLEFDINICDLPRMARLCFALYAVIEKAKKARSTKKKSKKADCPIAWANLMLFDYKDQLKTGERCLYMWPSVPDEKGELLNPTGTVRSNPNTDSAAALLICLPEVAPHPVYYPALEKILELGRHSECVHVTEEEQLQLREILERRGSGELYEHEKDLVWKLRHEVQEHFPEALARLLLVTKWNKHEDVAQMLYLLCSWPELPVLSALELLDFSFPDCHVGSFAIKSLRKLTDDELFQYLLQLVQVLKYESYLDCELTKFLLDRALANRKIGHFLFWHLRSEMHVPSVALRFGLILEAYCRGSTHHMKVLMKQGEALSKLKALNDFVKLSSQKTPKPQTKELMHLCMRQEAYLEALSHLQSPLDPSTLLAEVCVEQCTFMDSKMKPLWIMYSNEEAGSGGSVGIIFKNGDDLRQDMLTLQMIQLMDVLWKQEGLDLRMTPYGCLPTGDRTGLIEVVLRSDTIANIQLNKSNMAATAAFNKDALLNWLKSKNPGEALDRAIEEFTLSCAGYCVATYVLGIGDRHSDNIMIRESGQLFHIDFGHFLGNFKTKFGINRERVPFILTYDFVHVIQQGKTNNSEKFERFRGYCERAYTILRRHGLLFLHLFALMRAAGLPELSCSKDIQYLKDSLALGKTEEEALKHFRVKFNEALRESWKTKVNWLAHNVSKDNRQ
# assay.name: Luciferase-based luminescence assay (KinaseGlo), PI3K delta enzymatic activity
# Format: biochemical
# reported.conditions: ratio of enzymatic IC50 values, Table 1

| molecule | γ/δ ratio |
| --- | --- |
| CC(C)(Cc1ccccc1-c1cccc(CN2CCOCC2)c1)Nc1nc(N2CCOCC2)nc(-n2c(C(F)F)nc3ccccc32)n1 | D’ |
| CC(C)(Cc1ccccc1Cl)Nc1nc(N2CCOCC2)nc(-n2c(C(F)F)nc3ccccc32)n1 | C’ |
| CC(C)(Cc1ccc2ccccc2c1)Nc1nc(N2CCOCC2)nc(-n2c(C(F)F)nc3ccccc32)n1 | D’ |
| CC(C)(Cc1ccccc1F)Nc1nc(N2CCOCC2)nc(-n2c(C(F)F)nc3ccccc32)n1 | A’ |
| CC(C)(CNc1nc(N2CCOCC2)nc(-n2c(C(F)F)nc3ccccc32)n1)c1ccccc1 | D’ |
| CC(C)(Cc1ccc(F)cc1F)Nc1nc(N2CCOCC2)nc(-n2c(C(F)F)nc3ccccc32)n1 | C’ |
| CC(C)(Cc1ccccc1-c1cccnc1F)Nc1nc(N2CCOCC2)nc(-n2c(C(F)F)nc3ccccc32)n1 | A’ |
| Cc1cc(-c2ccccc2CC(C)(C)Nc2nc(N3CCOCC3)nc(-n3c(C(F)F)nc4ccccc43)n2)ccn1 | A’ |
| CC(C)(Cc1ccc(Br)cc1)Nc1nc(N2CCOCC2)nc(-n2c(C(F)F)nc3ccccc32)n1 | D’ |
| CC(C)(Cc1ccccc1C1CCNC1)Nc1nc(N2CCOCC2)nc(-n2c(C(F)F)nc3ccccc32)n1 (stereo not drawn) | A’ |
| CN(C)CCCc1ccccc1CC(C)(C)Nc1nc(N2CCOCC2)nc(-n2c(C(F)F)nc3ccccc32)n1 | A’ |
| CC(C)(Cc1cccc(F)c1)Nc1nc(N2CCOCC2)nc(-n2c(C(F)F)nc3ccccc32)n1 | B’ |
| C[C@H](Nc1nc(N2CCOCC2)nc(-n2c(C(F)F)nc3ccccc32)n1)c1ccccc1 | D’ |
| CC(C)(Cc1ccc(Cl)cc1)Nc1nc(N2CCOCC2)nc(-n2c(C(F)F)nc3ccccc32)n1 | C’ |
| CC(C)(Cc1ccccc1-c1ccncc1)Nc1nc(N2CCOCC2)nc(-n2c(C(F)F)nc3ccccc32)n1 | A’ |

----------
# measured.on: PI3Kβ (Homo sapiens)
# Construct: endogenous in cells; host or cells: PC-3 (ATCC #CRL-1435)
# assay.name: ELISA assay for PI3Kβ: in-cell ELISA, phosphorylation of AKT (Ser473) in PC-3 cells
# Type: cell-based
# reported.conditions: ratio of cellular IC50 values, Table 2

| compound | α/β ratio |
| --- | --- |
| CC(C)(Cc1ccccc1-c1cccnc1)Nc1nc(N2CCOCC2)nc(-n2c(C(F)F)nc3ccccc32)n1 [Compound A40] | A’ |
| COc1cc(-c2ccccc2CC(C)(C)Nc2nc(N3CCOCC3)nc(-n3c(C(F)F)nc4ccccc43)n2)ccn1 [Compound A41] | B’ |
| Cc1ccccc1-c1ccccc1CC(C)(C)Nc1nc(N2CCOCC2)nc(-n2c(C(F)F)nc3ccccc32)n1 [Compound A60] | A’ |
| CC(C)(Cc1ccc(F)cc1F)Nc1nc(N2CCOCC2)nc(-n2c(C(F)F)nc3ccccc32)n1 [Compound A51] | C’ |
| CN(C)CCCc1ccccc1CC(C)(C)Nc1nc(N2CCOCC2)nc(-n2c(C(F)F)nc3ccccc32)n1 [Compound A76] | A’ |
| Cn1nccc1-c1ccccc1CC(C)(C)Nc1nc(N2CCOCC2)nc(-n2c(C(F)F)nc3ccccc32)n1 [Compound A46] | A’ |

----------
# measured.on: PI3K beta (Homo sapiens)
# Construct: purchased Millipore, Billerica, MA, USA
# assay.name: Luciferase-based luminescence assay (ADP Glo), PI3K beta enzymatic activity
# Assay type: biochemical
# reported.conditions: ratio of enzymatic IC50 values, Table 1

| compound | measured.on | α/β ratio |
| --- | --- | --- |
| CC(C)(Cc1ccccc1C1CCNC1)Nc1nc(N2CCOCC2)nc(-n2c(C(F)F)nc3ccccc32)n1 (stereo not shown) | PI3K beta (Homo sapiens) | D’ |
| COc1ccccc1CC(C)(C)Nc1nc(N2CCOCC2)nc(-n2c(C(F)F)nc3ccccc32)n1 | PI3K beta (Homo sapiens) | D’ |
| CC(C)(Cc1ccc(Br)cc1)Nc1nc(N2CCOCC2)nc(-n2c(C(F)F)nc3ccccc32)n1 | PI3K beta (Homo sapiens) | D’ |
| Cn1nccc1-c1ccccc1CC(C)(C)Nc1nc(N2CCOCC2)nc(-n2c(C(F)F)nc3ccccc32)n1 | PI3K beta (Homo sapiens) | A’ |
| COc1cccc(CC(C)(C)Nc2nc(N3CCOCC3)nc(-n3c(C(F)F)nc4ccccc43)n2)c1 | PI3K beta (Homo sapiens) | C’ |
| C[C@H](Nc1nc(N2CCOCC2)nc(-n2c(C(F)F)nc3ccccc32)n1)c1ccccc1 | PI3K beta (Homo sapiens) | D’ |
| Cc1cc(-c2ccccc2CC(C)(C)Nc2nc(N3CCOCC3)nc(-n3c(C(F)F)nc4ccccc43)n2)ccn1 | PI3K beta (Homo sapiens) | A’ |

meta.source: patent US12059422B2
